# Protocol notes: Anti-platelet activity in rabbit platelet-rich plasma assessed as inhibition of ADP-induced platelet aggregation at 50 uM incubated for 5 mins at 37 degC by aggregometry
# Type: functional
# Protocol conditions: Oryctolagus cuniculus
Answer each item with its documented inhibition at 50 µM.
API: value field is a number in %; no unit string.

[Q] If you can, please state the reported inhibition at 50 µM value of COc1ccc(/C=C/C(=O)O)c(OC(=O)c2nc(C)c(C)nc2C)c1 .
[A] 34.1

[Q] Would you kindly share the measured inhibition at 50 µM for O=C(O)/C=C/c1ccc(Cn2ccnc2)cc1 ?
[A] 25

[Q] So what does the record say about inhibition at 50 µM for Cc1nc(C)c(C(=O)Oc2cccc(/C=C/C(=O)O)c2)nc1C ?
[A] 28

[Q] For the molecule shown here, Cc1nc(C)c(C(=O)Oc2ccc(/C=C/C(=O)O)cc2)nc1C , give the reported inhibition at 50 µM.
[A] 41.7

[Q] Given the molecule CCOC(=O)/C=C/c1ccc(O)c(OC)c1 [ETHYL FERULATE] , what is its reported inhibition at 50 µM?
[A] 17.9

[Q] Suppose we examine the molecule COc1ccc(/C=C/C(=O)O)cc1OC(=O)c1nc(C)c(C)nc1C ; what inhibition at 50 µM value has been reported?
[A] 59.8

[Q] For Cc1nc(C)c(C(=O)Oc2ccccc2/C=C/C(=O)O)nc1C , what is its reported inhibition at 50 µM?
[A] 53.8

[Q] Give the measured inhibition at 50 µM of COc1cc(/C=C/C(=O)O)ccc1OC(=O)c1nc(C)c(C)nc1C .
[A] 46.2

[Q] Would you kindly share the measured inhibition at 50 µM for CCOC(=O)/C=C/c1ccc(O)cc1 [ETHYL P-COUMARATE] ?
[A] 25.5

[Q] Entry under review: Cc1nc(C)c(C)nc1C . Reported inhibition at 50 µM?
[A] 15.3

[Q] Which inhibition at 50 µM value belongs to CCOC(=O)/C=C/c1ccc(OC)c(OC(=O)c2nc(C)c(C)nc2C)c1 ?
[A] 32.2

[Q] Requested field: inhibition at 50 µM. Item: O=C(O)/C=C/c1ccc(O)cc1
[A] 53.2

[Q] Tell me the measured inhibition at 50 µM of CCOC(=O)/C=C/c1cc(Cl)ccc1OC(=O)c1nc(C)c(C)nc1C , please.
[A] 44.4

[Q] Quick one: inhibition at 50 µM of CCOC(=O)/C=C/c1ccc(OC(=O)c2nc(C)c(C)nc2C)cc1 ?
[A] 32.2

[Q] What inhibition at 50 µM value was documented for this molecule, COC(=O)[C@H](c1ccccc1Cl)N1CCc2sccc2C1 ?
[A] 92.3

[Q] What inhibition at 50 µM value was documented for this molecule, CCOC(=O)/C=C/c1cccc(OC(=O)c2nc(C)c(C)nc2C)c1 ?
[A] 59.6

[Q] Endpoint output: inhibition at 50 µM of COc1ccc(OC(=O)c2nc(C)c(C)nc2C)c(/C=C/C(=O)O)c1 . Value?
[A] 48.8

[Q] What value of measured inhibition at 50 µM is listed for Cc1nc(C)c(C(=O)Oc2ccc(/C=C/C(=O)O)cc2O)nc1C ?
[A] 44.5

[Q] Record request: inhibition at 50 µM value, item CCOC(=O)/C=C/c1ccc(OC)cc1OC(=O)c1nc(C)c(C)nc1C
[A] 18.7

[Q] Quick one: inhibition at 50 µM of CCOC(=O)/C=C/c1ccccc1OC(=O)c1nc(C)c(C)nc1C ?
[A] 39

[Q] Request the reported inhibition at 50 µM associated with CCOC(=O)/C=C/c1ccc(OC(=O)c2nc(C)c(C)nc2C)c(O)c1
[A] 37.9

[Q] Reported inhibition at 50 µM for CCOC(=O)/C=C/c1ccc(OC(=O)c2nc(C)c(C)nc2C)c(OC)c1 : what is it?
[A] 49.9

[Q] Tell me the measured inhibition at 50 µM of CCOC(=O)/C=C/c1cc(OC)c(OC(=O)c2nc(C)c(C)nc2C)c(OC)c1 , please.
[A] 55.9

[Q] # get_value(readout='inhibition at 50 µM', item= Cc1nc(C)c(C(=O)Oc2ccc(Cl)cc2/C=C/C(=O)O)nc1C )
[A] 37

[Q] Please look up its inhibition at 50 µM: O=C(O)/C=C/c1ccccc1O
[A] 30.5

[Q] // query inhibition at 50 µM value for entry CCOC(=O)/C=C/c1cc(OC)ccc1OC(=O)c1nc(C)c(C)nc1C
[A] 72.9

[Q] Can you look up the measured inhibition at 50 µM of COc1cc(/C=C/C(=O)O)cc(OC)c1OC(=O)c1nc(C)c(C)nc1C for me?
[A] 51.2

---

# Protocol notes: Anti-platelet activity in rabbit platelet-rich plasma assessed as inhibition of ADP-induced platelet aggregation at 100 uM incubated for 5 mins at 37 degC by aggregometry
# Type: functional
# Protocol conditions: Oryctolagus cuniculus
Classes by inhibition at 100 µM: bin 0 (below 40%), bin 1 (40% to below 60%), bin 2 (60% or more)

[Q] Band assignment needed for Cc1nc(C)c(C(=O)Oc2ccc(/C=C/C(=O)O)cc2O)nc1C please.
[A] bin 1

[Q] Categorize the following entry: Cc1nc(C)c(C(=O)Oc2ccccc2/C=C/C(=O)O)nc1C
[A] bin 0

[Q] The entry to classify is CCOC(=O)/C=C/c1ccc(OC(=O)c2nc(C)c(C)nc2C)cc1 ; which class holds it?
[A] bin 0

[Q] Category of O=C(O)/C=C/c1ccc(O)cc1 :
[A] bin 1

[Q] Class (by measured inhibition at 100 µM) for COC(=O)[C@H](c1ccccc1Cl)N1CCc2sccc2C1
[A] bin 2

[Q] For COc1cc(/C=C/C(=O)O)cc(OC)c1OC(=O)c1nc(C)c(C)nc1C , which inhibition at 100 µM bin applies?
[A] bin 1

[Q] Hi, small favor: classify CCOC(=O)/C=C/c1ccc(O)c(OC)c1 [ETHYL FERULATE] by its inhibition at 100 µM when you get a moment.
[A] bin 0

[Q] Lab note: which band did Cc1nc(C)c(C)nc1C land in?
[A] bin 0

[Q] Could you tell me which band Cc1nc(C)c(C(=O)Oc2ccc(/C=C/C(=O)O)cc2)nc1C belongs to?
[A] bin 0

[Q] Exercise: read the entry CCOC(=O)/C=C/c1ccc(OC)cc1OC(=O)c1nc(C)c(C)nc1C and state which class it falls under.
[A] bin 1

[Q] Which bin, given its inhibition at 100 µM, does O=C(O)/C=C/c1ccc(Cn2ccnc2)cc1 occupy?
[A] bin 0

[Q] Band for O=C(O)/C=C/c1ccccc1O ?
[A] bin 1

[Q] Textbook exercise: identify the category of the compound given here, CCOC(=O)/C=C/c1ccc(OC(=O)c2nc(C)c(C)nc2C)c(OC)c1 , according to its measured value.
[A] bin 2

[Q] Record Cc1nc(C)c(C(=O)Oc2cccc(/C=C/C(=O)O)c2)nc1C — which class?
[A] bin 0

[Q] Into which category would you place CCOC(=O)/C=C/c1ccccc1OC(=O)c1nc(C)c(C)nc1C ?
[A] bin 1

[Q] Kindly state the category for this compound: COc1cc(/C=C/C(=O)O)ccc1OC(=O)c1nc(C)c(C)nc1C
[A] bin 2

[Q] Which bin should I file CCOC(=O)/C=C/c1cccc(OC(=O)c2nc(C)c(C)nc2C)c1 under?
[A] bin 2

[Q] Form: Item = CCOC(=O)/C=C/c1ccc(O)cc1 [ETHYL P-COUMARATE] ; Class = ?
[A] bin 0

[Q] Hi, small favor: classify COc1ccc(/C=C/C(=O)O)cc1OC(=O)c1nc(C)c(C)nc1C by its inhibition at 100 µM when you get a moment.
[A] bin 2

[Q] Band assignment needed for Cc1nc(C)c(C(=O)Oc2ccc(Cl)cc2/C=C/C(=O)O)nc1C please.
[A] bin 2

---

I'd be grateful if you could share measured Activity for these entries.
# Protocol notes: Cytoprotective activity against H2O2-induced cytotoxicity in human EAhy926 cells at 25 uM pre-incubated for 24 hrs before H2O2 challenge for 12 hrs by MTT assay
# Type: functional, EA.hy 926

[Q] What value of Activity has been recorded for this entry: CCOC(=O)/C=C/c1cc(OC)c(O)c(OC)c1
[A] 24.9%

[Q] Given the compound O=C(O)/C=C/c1ccc(O)c(O)c1 , what is its reported Activity?
[A] 108.5%

[Q] Activity lookup needed for CCOC(=O)/C=C/c1ccccc1OC(=O)c1nc(C)c(C)nc1C , thanks.
[A] 17.8%

[Q] Recorded Activity of CCOC(=O)/C=C/c1cc(OC)ccc1OC(=O)c1nc(C)c(C)nc1C , please.
[A] 23.4%

[Q] Fill in: Activity of CCOC(=O)/C=C/c1ccc(OC(=O)c2nc(C)c(C)nc2C)c(OC)c1 is ___
[A] 53.3%

[Q] Suppose we examine the compound COc1ccc(/C=C/C(=O)O)cc1O ; what Activity value has been reported?
[A] 36.8%

[Q] For the compound shown here, CCOC(=O)/C=C/c1ccc(OC(=O)c2nc(C)c(C)nc2C)c(O)c1 , give the reported Activity.
[A] 207%

[Q] Item CCOC(=O)/C=C/c1ccc(OC(=O)c2nc(C)c(C)nc2C)cc1 has what recorded Activity?
[A] 58.8%

[Q] Look at this compound and give its reported Activity. Cc1nc(C)c(C)nc1C
[A] 13.6%

[Q] GET /values?readout=Activity&item= COc1cc(/C=C/C(=O)O)ccc1OC(=O)c1nc(C)c(C)nc1C
[A] 40.3%

[Q] If you can, please state the reported Activity value of CCOC(=O)/C=C/c1ccc(O)c(O)c1 [ETHYL CAFFEATE] .
[A] 88.4%

[Q] Using the record for COc1ccc(OC(=O)c2nc(C)c(C)nc2C)c(/C=C/C(=O)O)c1 , report its Activity.
[A] 45%

[Q] Would you mind telling me what Activity value was observed for Cc1nc(C)c(C(=O)Oc2ccc(/C=C/C(=O)O)cc2)nc1C ?
[A] 46.6%

[Q] Name the reported Activity value associated with the compound COc1cc(/C=C/C(=O)O)cc(OC)c1OC(=O)c1nc(C)c(C)nc1C
[A] 24%

[Q] // Activity lookup, key: Cc1nc(C)c(C(=O)Oc2ccccc2/C=C/C(=O)O)nc1C
[A] 61.8%

[Q] # get_value(readout='Activity', item= Cc1nc(C)c(C(=O)Oc2ccc(Cl)cc2/C=C/C(=O)O)nc1C )
[A] 26%

[Q] Record request: Activity value, item CCOC(=O)/C=C/c1cc(Cl)ccc1OC(=O)c1nc(C)c(C)nc1C
[A] 62.5%

[Q] What Activity value was documented for this compound, CCOC(=O)/C=C/c1ccc(OC)c(OC(=O)c2nc(C)c(C)nc2C)c1 ?
[A] 60.1%

[Q] What measured Activity goes with Cc1nc(C)c(C(=O)Oc2ccc(/C=C/C(=O)O)cc2O)nc1C ?
[A] 271.1%

[Q] Dear colleague, I am looking for the recorded Activity of the following compound: COc1ccc(/C=C/C(=O)O)c(OC(=O)c2nc(C)c(C)nc2C)c1
[A] -52.1%

[Q] Entry CCOC(=O)/C=C/c1ccc(OC)cc1OC(=O)c1nc(C)c(C)nc1C has what Activity?
[A] 16.9%

[Q] Sample Cc1nc(C)c(C(=O)Oc2cccc(/C=C/C(=O)O)c2)nc1C — what was its Activity?
[A] 64.3%
